The following compounds are listed with their measured melting point values.

Consider the reported melting point for these compounds:
- COMPOUND: "CCN(CC)c1ccc(C(=O)NCCNC(=O)c2ccc(N(CC)CC)cc2)cc1"
  melting point: "166 to 167 °C"
- COMPOUND: "Cn1c(=O)c2c(ncn2Cc2noc(O)n2)n(C)c1=O"
  melting point: "206 to 207 °C"
- COMPOUND: "CC1(C(=O)C(C(O)C(Cl)(Cl)CCl)n2cncn2)CC1 (configuration not stated)"
  melting point: "182 to 186 °C"

// next item, melting point requested
Lab book: melting point of "CCCS(=O)(=O)N=C(N[N+](=O)[O-])SC" noted as 91 to 93 °C

###

The following compounds are listed with their measured melting point values.

- COMPOUND: "CCN(CC)C(=O)c1cccs1"
  melting point: "50 to 52 °C"

Lab book: melting point of "Cc1cc(C(O)(c2ccccc2)c2ccccc2)on1" noted as 116 to 118 °C

Lab book: melting point of CC(C)(C)C(C)(O)C(Cn1cncn1)Oc1ccc(Cl)cc1 (stereo not given) noted as 150 °C

Lab book: melting point of CCC1CCCCN1C(=O)C=Cc1c(-c2ccccc2)nn2ccccc12 (stereo not given) noted as 121 to 122 °C

Lab book: melting point of "COC(=O)NC(=S)Nc1ccccc1NC(=O)CCl" noted as 156 to 158 °C

###

The following molecules are listed with their measured melting point values.
I only need the number, in °C, no unit after it.

- CPD_SMILES: "NCCCCNC(=O)C1(NC(=O)CCCC(=O)O)Cc2ccccc2C1"
  OBSERVED_MEASUREMENT: 132

Lab book: melting point of "NS(=O)(=O)c1ccc(-c2c(-c3ccccc3)noc2CC(=O)O)cc1" noted as 61

###

The following molecules are listed with their measured melting point values.

Consider the reported melting point for these molecules:
- MOLECULE: "Cc1[nH]cc(C(N)=O)c(=O)c1I"
  melting point: "296 to 298 °C"
- MOLECULE: "COc1cc(C=O)cc(F)c1OC"
  melting point: "51 to 53 °C"
- MOLECULE: "Cc1cc(-n2cnn(Cc3ccc(C(F)(F)F)cc3)c2=O)sc1C(=O)NCc1cccnc1"
  melting point: "176 to 178 °C"
- MOLECULE: "C=Cc1cccc2ccc(O)nc12"
  melting point: "96 °C"
- MOLECULE: "O=C(O)/C=C/c1ccc(C(=O)NCC2CCCO2)cc1 (stereo unspecified)"
  melting point: "215 °C"

Lab book: melting point of Cn1cccc1C(=O)C(C#N)C(=O)Nc1ccccc1 (stereo unspecified) noted as 170 to 172 °C

###

MEASUREMENT_NAME: melting point

Lab book: melting point of O=c1c2c([nH]c3ccccc13)C(C1Cc3ccccc3O1)N(c1ncc(-c3ccccn3)cn1)C2 (configuration not stated) noted as 201 to 203 °C

Lab book: melting point of O=C(O)C1CCc2[nH]c3ccc(Cl)c(Cl)c3c2C1 (configuration not stated) noted as 244 to 245 °C

Lab book: melting point of "COc1cc(OC)nc(NC(=O)NS(=O)(=O)c2nc(C)cc3c2C(=O)OC3)n1" noted as 149 to 153 °C

Lab book: melting point of CC1c2cc(C(C)(C)C)cc(C(C)(C)C)c2OP(Cl)Oc2c1cc(C(C)(C)C)cc2C(C)(C)C (configuration not stated) noted as 194 to 198 °C

Lab book: melting point of "C[Si](C)(C)CCCSCCCNC(=O)n1cc(F)c(=O)[nH]c1=O" noted as 105 to 106 °C

Lab book: melting point of "COc1ccc(Cn2c(=S)[nH]c(=S)c3[nH]c(C(C)C)nc32)cc1OC1CCCC1" noted as 204 to 206 °C

Lab book: melting point of "CCCCCC(=O)c1c(CSc2nccn2C)nc2cc(OC)c(OC)cc2c1-c1ccc(OC)c(OC)c1" noted as 128 to 129 °C

###

The following compounds are listed with their measured melting point values.

Consider the reported melting point for these compounds:
- COMPOUND: "Oc1ccc2cc(-c3cnc(Cc4ccccc4)o3)ccc2c1"
  OBSERVED_MEASUREMENT: "200 to 202 °C"
- COMPOUND: "CCN(C1CC(C)(C)Oc2ccc(OCc3cc(OC)ccn3)cc21)S(C)(=O)=O (stereo not drawn)"
  OBSERVED_MEASUREMENT: "87 to 89 °C"

Lab book: melting point of "CCOC(=O)CCc1ccnc(O)c1" noted as 73 to 76.5 °C

###

The following compounds are listed with their measured melting point values.

- COMPOUND: "O=C(NCCC12CC3CC(CC(C3)C1)C2)c1cc(-c2cccnc2C(=O)O)ccc1Cl"
  melting point: "108 to 111 °C"

Lab book: melting point of "CNC(=O)Nc1ccc(O)c(Cl)c1" noted as 188 to 189 °C

Lab book: melting point of Cc1nnc(-c2ccc3occ(-c4ccc(S(=O)CF)cc4)c3c2)o1 (stereo not drawn) noted as 173 to 174 °C

###

MEASUREMENT_NAME: melting point

Lab book: melting point of "CCOC(=O)c1c(-c2ccc(F)cc2)cc(-c2ccccc2Cc2ccccc2)nc1C(C)C" noted as 94 to 97 °C

Lab book: melting point of "CN(C=O)c1ccccc1C(=O)COC(=O)c1ccccc1" noted as 100 to 102 °C

Lab book: melting point of "CCCOc1ccccc1CCOc1ccc2c(c1)C=C(C(=O)Nc1ccc(CN(C)C3CCOCC3)cc1)CCS2(=O)=O" noted as 161 to 162 °C

Lab book: melting point of "Cc1ncc(CN)c(N)n1" noted as 155 °C

Lab book: melting point of "C#CCN(C(=O)CN)C(=O)OC" noted as 77 to 80 °C

Lab book: melting point of "ONC=Nc1ccc(N2CCSCC2)c(Cl)c1" noted as 137 to 138 °C

Lab book: melting point of "O=C1NCN(c2ccccc2)C12CCN(CCCn1c(=O)[nH]c3cc(Cl)ccc31)CC2" noted as 234 °C

Lab book: melting point of O=C(Nc1cccc(O)c1)C(CS)C(F)(F)F (stereo unspecified) noted as 147 to 151 °C

Lab book: melting point of CN(C)C(=O)C(C1CCCCC1)n1ccc(-c2ccccc2)n1 (stereo unspecified) noted as 87.5 to 90 °C

Lab book: melting point of "N#Cc1ccc(OCc2ccc(C=Cc3ccncc3)cc2)cc1" noted as 149 to 150 °C

Lab book: melting point of "CC(C)[N+]([O-])=Cc1cccc(N)c1" noted as 103 to 106 °C

###

MEASUREMENT_NAME: melting point

Consider the reported melting point for these molecules:
- MOLECULE: "CCC(=O)N1C(=S)NC(C)=C(C(=O)OC)C1c1cccc([N+](=O)[O-])c1 (stereo not given)"
  melting point: "167 to 171 °C"
- MOLECULE: "CCOC(=O)C1CCc2c([nH]c3ccc(C)cc23)C1 (stereo not given)"
  melting point: "117 to 118 °C"

Lab book: melting point of "N#CCOc1ccc2cc(-c3csc(-c4ccccc4)n3)ccc2c1" noted as 113 to 117 °C

Lab book: melting point of "Cc1c(-c2ccc(O)cc2)sc(C=O)c1-c1ccc(O)c(F)c1" noted as 223 to 226 °C

Lab book: melting point of CCC1C(=O)Nc2ccc3ccccc3c21 (stereo not given) noted as 124 to 126 °C

###

The following molecules are listed with their measured melting point values.

Consider the reported melting point for these molecules:
- MOLECULE: "CCCCCCCCCCCCCCCCCC(=O)NCNC(=O)CCSc1ccc(O)cc1"
  MEASUREMENT_NAME: "melting point"
  OBSERVED_MEASUREMENT: "172 °C"
- MOLECULE: "Cc1ccc(-c2ccc(C(=O)Nc3cc4ncc(CN5CCCC5)cc4cc3C)cc2)cc1"
  MEASUREMENT_NAME: "melting point"
  OBSERVED_MEASUREMENT: "191 to 193 °C"
- MOLECULE: "CCCCCCCCCCOc1ccc(C(=O)O[C@@H]2CC[C@H](NC(=O)[C@H](OC)[C@H](O)[C@@H](O)[C@H](O)/C=C/C(C)(C)C)C(=O)NC2)cc1"
  MEASUREMENT_NAME: "melting point"
  OBSERVED_MEASUREMENT: "70 to 74 °C"
- MOLECULE: "CC(C)(OCc1nn(C(=O)c2ccccc2)c2ccccc12)C(=O)O"
  MEASUREMENT_NAME: "melting point"
  OBSERVED_MEASUREMENT: "132 to 135 °C"
- MOLECULE: "CNC(=C[N+](=O)[O-])NCCSCc1csc(CN2CCCCC2)n1"
  MEASUREMENT_NAME: "melting point"
  OBSERVED_MEASUREMENT: "100 to 103 °C"

Lab book: melting point of "O=c1c2c[nH]c3ccccc3n-2c(=O)n1-c1ccccc1" noted as 231 to 234 °C

Lab book: melting point of "CCCCCCCCCCCCCCCCCCOc1ccc2ccccc2c1" noted as 64 to 68 °C

Lab book: melting point of "CC[C@H](C)[C@H](OCc1ccccc1)[C@H]1[C@H]([N+](=O)[O-])[C@@H]([C@@H](OCc2ccccc2)C(C)C)N[C@@H]1C(=O)O" noted as 172 to 174 °C

Lab book: melting point of O=C1N(Cc2ccc(C(F)(F)F)o2)c2ccccc2C12COc1cc(OC(F)(F)F)ccc12 (centres undefined) noted as 78 to 80 °C

Lab book: melting point of "CCOC(=O)c1cnc2cc(Br)c(F)cc2c1O" noted as > 280 °C

Lab book: melting point of "CCOC(=O)c1nccn1CCCCc1ccc(OCc2coc(/C=C/c3ccccc3)n2)cc1" noted as 96 to 97 °C

Lab book: melting point of "CCOC(=O)CCCOc1ccc(C(C)=O)cc1" noted as 59 to 61 °C

Lab book: melting point of "COc1ccc(NC(=O)C#Cc2ccc(CN3CCCCC3)cc2)cc1" noted as 170 °C

Lab book: melting point of "O=C(Nc1ccc(N2CCOCC2)c(C(F)(F)F)c1)c1ccc(F)c(OCc2cccnc2)c1" noted as 160 to 161 °C

Lab book: melting point of "Cn1cnc(COc2nc3c(cc2-c2cccc(F)c2)nnn3-c2ccccc2F)n1" noted as 202 to 205 °C

Lab book: melting point of "C[C@@H](O)C(=O)NC[C@H]1CCc2ccc(S(=O)(=O)c3ccccc3)cc2O1" noted as 130 to 132 °C

Lab book: melting point of CC(C)(CC(O)(C(=O)Nc1ccc2c(c1Br)COC2=O)C(F)(F)F)c1ccccc1 (centres undefined) noted as 187 to 194 °C

Lab book: melting point of "CC(=O)n1c(SC(F)(F)C(F)F)nc(-c2ccccc2)c1-c1ccccc1" noted as 143 to 144 °C

Lab book: melting point of "COc1ccc(CNC(=O)c2cc3c(=O)n(CC#Cc4ccccc4)c(=O)n(C)c3s2)cc1" noted as 168 to 171 °C

Lab book: melting point of "O=c1ccc(-c2ccco2)n[nH]1" noted as 183 to 184 °C

Lab book: melting point of CCc1ccc2oc(C(=O)Nc3ccc(-c4ccc(S(=O)(=O)NC(C(=O)OC)C(C)C)cc4)cc3)c(C)c2c1O (centres undefined) noted as 75 to 80 °C

Lab book: melting point of CC(CC#N)(C(=O)NCC#N)c1ccc(C(=O)Nc2cn3cc(Cl)ccc3n2)cc1 (centres undefined) noted as 268 to 269 °C

Lab book: melting point of C=CCN(c1ncnc2c1ncn2C1OC(CO)C(O)C1O)C1CCCCC1 (centres undefined) noted as 123 to 125 °C

Lab book: melting point of "O=c1nc(-c2cccc(CN3CCC(Cc4ccccc4)CC3)n2)sc2ccccc12" noted as 151 to 153 °C

Lab book: melting point of "CC(=O)Nc1c([N+](=O)[O-])cnn1-c1c(F)c(F)c(C(F)(F)F)c(F)c1F" noted as 136 to 138 °C

Lab book: melting point of CC(=O)OC1CSC(Sc2ccc(C(=O)C(F)(F)F)cc2)C(OC(C)=O)C1OC(C)=O (centres undefined) noted as 143 to 148 °C

Lab book: melting point of "CCc1nn(CCO)c(CC)c1Cc1cc(C#N)cc(C#N)c1" noted as 115 to 117 °C

Lab book: melting point of "O=c1c2c(Cc3ccc(O)cc3)n[nH]c2c2cccnc2n1-c1ccccc1" noted as 316 to 317 °C

Lab book: melting point of CON=CNC(=O)c1ccc(C2=NOC(c3cc(Cl)cc(Cl)c3)(C(F)(F)F)C2)cc1C (centres undefined) noted as 167 to 169 °C

Lab book: melting point of "N#CCc1ccc(Cl)cc1C(=O)O" noted as 120 °C

Lab book: melting point of "CCOC(=O)CON(CC)C(=S)Nc1ccc(Cl)cc1C" noted as 69 to 71 °C

Lab book: melting point of "FC(F)(F)c1cc(C(F)(F)F)cc(P(=S)(S)c2cc(C(F)(F)F)cc(C(F)(F)F)c2)c1" noted as 72 to 74 °C

Lab book: melting point of CC(C)COP(C)(=O)c1ccccc1S(N)(=O)=O (centres undefined) noted as 50 to 52 °C

Lab book: melting point of "O=C(COCc1ccc(Cl)cc1Cl)c1ccccc1" noted as 83 to 85 °C

Ref: a melting point compilation (Tetko et al.; mined from patent text by program, amines drawn as free bases though some values may be those of a salt)
